# credit: ChEMBL document CHEMBL1134613

What IC50 was measured for each of the following?
# PROTOCOL: Inhibitory activity against PTP-S2 phosphatase

Q) Given the entry CCCCCCCCOC(=O)C1=C(O)O[C@H](CO)C1=O , report its measured IC50.
A) > 180 µM

Q) Given the entry CCCCCCCCCCCCCCCC(=O)C1=C(O)O[C@H](CC(=O)OC(=[N+]=[N-])C(=O)OCC)C1=O , report its measured IC50.
A) > 100 µM

Q) Given the entry CCCCCCCCCCCCCCCC(=O)C1=C(O)O[C@H](CC(=O)Oc2ccc(C3(C(F)(F)F)N=N3)cc2)C1=O , report its measured IC50.
A) > 100 µM

Q) Given the entry CCCCCCCCCCCCCCCC(=O)C1=C(O)O[C@H](CC(=O)Oc2ccc(C(=O)c3ccccc3)cc2)C1=O , report its measured IC50.
A) > 25 µM

Q) Given the entry CCCCC/C=C/C/C=C/CCCCCCCCOC(=O)C1=C(O)O[C@H](CO)C1=O , report its measured IC50.
A) 59.7 µM

Q) Given the entry CCCCCCCCCCCCCCSC(=O)C1=C(O)O[C@H](CO)C1=O , report its measured IC50.
A) > 100 µM

Q) Given the entry O=C(OCc1ccccc1)C1=C(O)O[C@H](CO)C1=O , report its measured IC50.
A) > 250 µM

Q) Given the entry CCCCCCCCCCCCCCCC(=O)C1=C(O)O[C@H](COS(C)(=O)=O)C1=O , report its measured IC50.
A) > 80 µM

Q) Given the entry CCCCCCCCCCCCCCCC(=O)C1=C(O)[C@@H](CO)OC1=O (stereo in doubt; 1) , report its measured IC50.
A) > 100 µM

Q) Given the entry CC(C)=CCCC(C)CCOC(=O)C1=C(O)O[C@H](CO)C1=O (stereo partly specified) , report its measured IC50.
A) > 250 µM

Q) Given the entry CCCCCCCCCCCCCCCC(=O)C1=C(OC)[C@@H](CO)OC1=O , report its measured IC50.
A) > 100 µM

Q) Given the entry CCCCCCCCCCCCCCCC(=O)C1=C(O)O[C@H](C)C1=O , report its measured IC50.
A) > 100 µM

Q) Given the entry CCCCCCCCCCCCCCOC(=O)C1=C(O)O[C@H](CO)C1=O , report its measured IC50.
A) > 50 µM

Q) Given the entry C=CCOC(=O)NCCCCCCCCCCCCCCCCOC(=O)C1=C(O)O[C@H](CO)C1=O , report its measured IC50.
A) > 250 µM

Q) Given the entry CC/C=C/C/C=C/C/C=C/CCCCCCCCOC(=O)C1=C(O)O[C@H](CO)C1=O , report its measured IC50.
A) 31.8 µM

Q) Given the entry O=C(OC1CCCCC1)C1=C(O)O[C@H](CO)C1=O , report its measured IC50.
A) > 250 µM

Q) Given the entry O=C(/C=C\c1ccccc1)C1=C(O)O[C@H](CO)C1=O , report its measured IC50.
A) > 100 µM

Q) Given the entry CCCCCCCCCCCCCCNC(=O)C1=C(O)O[C@H](CO)C1=O , report its measured IC50.
A) > 100 µM

Q) Given the entry O=C(OCCC(F)(F)C(F)(F)C(F)(F)C(F)(F)C(F)(F)C(F)(F)C(F)(F)C(F)(F)F)C1=C(O)O[C@H](CO)C1=O , report its measured IC50.
A) > 250 µM

Q) Given the entry CCCCCCCCCCOC(=O)C1=C(O)O[C@H](CO)C1=O , report its measured IC50.
A) 237 µM

Q) Given the entry CCCCCCCCCCCCCCOC(=O)C1=C(O)O[C@H](CC(=O)OC)C1=O , report its measured IC50.
A) > 250 µM
